test.details: Pharmacokinetics in rat plasma, IV and oral
Type: in vivo, male Sprague-Dawley rats
condition.notes: male, Sprague-Dawley; rat plasma, oral 5 mg/kg

[
  {
    "compound": "C[C@H]1CO[C@@H]2Cn3cc(C(=O)NCc4ccc(F)cc4F)c(=O)c(O)c3C(=O)N12 [CAB, Cabotegravir, reference compound]",
    "AUC(0-inf), µg·h/mL": 158
  }
]

* * *

System: HIV-1 (IIIB strain)
test.details: Anti-HIV cytoprotection assay (XTT), HIV-1 IIIB in CEM-SS cells
Assay type: cell-based
condition.notes: Human immunodeficiency virus 1, IIIB, CEM-SS, CEM-SS cell line; read-out: Inhibitory activity (EC50) against HIV-1 (IIIB strain)

[
  {
    "chemical.smiles": "Cc1cc2c(cc1CNC(=O)c1cn3c(c(O)c1=O)C(=O)N1[C@@H](C)CO[C@@H]1C3)OCCO2",
    "assay.system": "HIV-1 (IIIB strain)",
    "EC50": "10 to 30 nM"
  },
  {
    "chemical.smiles": "C[C@H]1CO[C@@H]2Cn3cc(C(=O)NCc4nncn4C)c(=O)c(O)c3C(=O)N12",
    "assay.system": "HIV-1 (IIIB strain)",
    "EC50": "~10 nM"
  },
  {
    "chemical.smiles": "C[C@H]1CO[C@@H]2Cn3cc(C(=O)NCc4cnc5ccccn45)c(=O)c(O)c3C(=O)N12",
    "assay.system": "HIV-1 (IIIB strain)",
    "EC50": "> 30 nM"
  },
  {
    "chemical.smiles": "Cc1nn(C)c(C)c1CNC(=O)c1cn2c(c(O)c1=O)C(=O)N1[C@@H](C)CO[C@@H]1C2",
    "assay.system": "HIV-1 (IIIB strain)",
    "EC50": "10 to 30 nM"
  },
  {
    "chemical.smiles": "C[C@@H]1CCO[C@H]2Cn3cc(C(=O)NCc4c(F)cncc4F)c(=O)c(O)c3C(=O)N12",
    "assay.system": "HIV-1 (IIIB strain)",
    "EC50": "2 to 10 nM"
  },
  {
    "chemical.smiles": "C[C@H]1CO[C@@H]2Cn3cc(C(=O)NCc4nnc5ccc(Cl)nn45)c(=O)c(O)c3C(=O)N12",
    "assay.system": "HIV-1 (IIIB strain)",
    "EC50": "10 to 30 nM"
  },
  {
    "chemical.smiles": "C[C@H]1CO[C@@H]2Cn3cc(C(=O)NCc4nc5ccccc5s4)c(=O)c(O)c3C(=O)N12",
    "assay.system": "HIV-1 (IIIB strain)",
    "EC50": "1.93 nM"
  },
  {
    "chemical.smiles": "O=C(NCc1ccc(F)nc1F)c1cn2c(c(O)c1=O)C(=O)N1[C@H]3CC[C@H](C3)O[C@@H]1C2",
    "assay.system": "HIV-1 (IIIB strain)",
    "EC50": "2 to 10 nM"
  },
  {
    "chemical.smiles": "C[C@@H]1CCO[C@H]2Cn3cc(C(=O)NCc4c(F)cc(F)nc4F)c(=O)c(O)c3C(=O)N12",
    "assay.system": "HIV-1 (IIIB strain)",
    "EC50": "2 to 10 nM"
  },
  {
    "chemical.smiles": "C[C@H]1CO[C@@H]2Cn3cc(C(=O)NCc4cn5ncsc5n4)c(=O)c(O)c3C(=O)N12",
    "assay.system": "HIV-1 (IIIB strain)",
    "EC50": "> 30 nM"
  },
  {
    "chemical.smiles": "C[C@H]1CO[C@@H]2Cn3cc(C(=O)NCc4ccccn4)c(=O)c(O)c3C(=O)N12",
    "assay.system": "HIV-1 (IIIB strain)",
    "EC50": "10 to 30 nM"
  },
  {
    "chemical.smiles": "C[C@H]1CO[C@@H]2Cn3cc(C(=O)NCc4ccc5nonc5c4)c(=O)c(O)c3C(=O)N12",
    "assay.system": "HIV-1 (IIIB strain)",
    "EC50": "0.43 nM"
  },
  {
    "chemical.smiles": "C[C@H]1CO[C@@H]2Cn3cc(C(=O)NCc4ccc5[nH]c(=O)[nH]c5c4)c(=O)c(O)c3C(=O)N12",
    "assay.system": "HIV-1 (IIIB strain)",
    "EC50": "> 30 nM"
  },
  {
    "chemical.smiles": "Cc1n[nH]c(C)c1CNC(=O)c1cn2c(c(O)c1=O)C(=O)N1[C@@H](C)CO[C@@H]1C2",
    "assay.system": "HIV-1 (IIIB strain)",
    "EC50": "~8 nM"
  },
  {
    "chemical.smiles": "C[C@@H]1CO[C@@]23CCC[C@@H]2n2cc(C(=O)NCc4c(F)cc(F)nc4F)c(=O)c(O)c2C(=O)N13",
    "assay.system": "HIV-1 (IIIB strain)",
    "EC50": "2 to 10 nM"
  },
  {
    "chemical.smiles": "Cc1coc(CNC(=O)c2cn3c(c(O)c2=O)C(=O)N2[C@@H](C)CO[C@@H]2C3)n1",
    "assay.system": "HIV-1 (IIIB strain)",
    "EC50": "> 30 nM"
  },
  {
    "chemical.smiles": "Cc1nn2cc(CNC(=O)c3cn4c(c(O)c3=O)C(=O)N3[C@@H](C)CO[C@@H]3C4)nc2s1",
    "assay.system": "HIV-1 (IIIB strain)",
    "EC50": "> 30 nM"
  },
  {
    "chemical.smiles": "C[C@H]1CO[C@@H]2Cn3cc(C(=O)NCc4cn5cc(Cl)sc5n4)c(=O)c(O)c3C(=O)N12",
    "assay.system": "HIV-1 (IIIB strain)",
    "EC50": "> 30 nM"
  },
  {
    "chemical.smiles": "C[C@H]1CO[C@@H]2Cn3cc(C(=O)NCc4ccc(Cl)nc4)c(=O)c(O)c3C(=O)N12",
    "assay.system": "HIV-1 (IIIB strain)",
    "EC50": "10 to 30 nM"
  },
  {
    "chemical.smiles": "C[C@H]1CO[C@@H]2Cn3cc(C(=O)NCc4nnc5n4CCCC5)c(=O)c(O)c3C(=O)N12",
    "assay.system": "HIV-1 (IIIB strain)",
    "EC50": "> 30 nM"
  },
  {
    "chemical.smiles": "Cc1ccc2[nH]c(CNC(=O)c3cn4c(c(O)c3=O)C(=O)N3[C@@H](C)CO[C@@H]3C4)nc2c1",
    "assay.system": "HIV-1 (IIIB strain)",
    "EC50": "> 30 nM"
  },
  {
    "chemical.smiles": "C[C@@H]1CO[C@@]23CCC[C@@H]2n2cc(C(=O)NCc4c(F)cncc4F)c(=O)c(O)c2C(=O)N13",
    "assay.system": "HIV-1 (IIIB strain)",
    "EC50": "2 to 10 nM"
  },
  {
    "chemical.smiles": "CC(C)n1c(CNC(=O)c2cn3c(c(O)c2=O)C(=O)N2[C@@H](C)CO[C@@H]2C3)nc2ccccc21",
    "assay.system": "HIV-1 (IIIB strain)",
    "EC50": "> 30 nM"
  },
  {
    "chemical.smiles": "C[C@H]1CO[C@@H]2Cn3cc(C(=O)NCc4cnccn4)c(=O)c(O)c3C(=O)N12",
    "assay.system": "HIV-1 (IIIB strain)",
    "EC50": "> 30 nM"
  },
  {
    "chemical.smiles": "C[C@H]1CO[C@@H]2Cn3cc(C(=O)NCc4nccs4)c(=O)c(O)c3C(=O)N12",
    "assay.system": "HIV-1 (IIIB strain)",
    "EC50": "2 to 10 nM"
  },
  {
    "chemical.smiles": "C[C@H]1CO[C@@H]2Cn3cc(C(=O)NCc4ccncc4F)c(=O)c(O)c3C(=O)N12",
    "assay.system": "HIV-1 (IIIB strain)",
    "EC50": "10 to 30 nM"
  },
  {
    "chemical.smiles": "C[C@@H]1CCO[C@H]2Cn3cc(C(=O)NCc4ccc(F)nc4F)c(=O)c(O)c3C(=O)N12",
    "assay.system": "HIV-1 (IIIB strain)",
    "EC50": "5.15 nM"
  },
  {
    "chemical.smiles": "C[C@H]1CO[C@@H]2Cn3cc(C(=O)NCc4nc5c(s4)CCCCC5)c(=O)c(O)c3C(=O)N12",
    "assay.system": "HIV-1 (IIIB strain)",
    "EC50": "> 30 nM"
  },
  {
    "chemical.smiles": "Cc1nnsc1CNC(=O)c1cn2c(c(O)c1=O)C(=O)N1[C@@H](C)CO[C@@H]1C2",
    "assay.system": "HIV-1 (IIIB strain)",
    "EC50": "> 30 nM"
  }
]
